Values from PubChem BioAssay AID430

Below is a list of entries, each paired with its recorded cytotoxicity value.
test: cytotoxicity in HPDE-C7 cells, cell-based, fluorescence, HTS (AID 430);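 also: cells exposed to compound for 48 hours before viability readout; 0% = vehicle and 100% = reference cytotoxic drug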
particulars: HPDE-C7 pancreatic duct cells viability, at 10 µM, active compounds read high
Screen size: about 63,000 compounds; about 1,100 (1.7%) were called active. The list comes from a sample in which actives are over-represented; it also holds close analogues and randomly drawn compounds. Measured potencies and affinities stand elsewhere.

>  <smiles.str>
Cc1[nH]nc(-c2ccc(O)cc2O)c1-c1ccc(Cl)cc1

>  <cytotoxicity>
60.1% (active)

$$$$

QUERY: Which measured cytotoxicity value corresponds to CCCc1nc(SCC(=O)N2CCN(c3ccccc3)CC2)c2c(=O)n(C)c(=O)n(C)c2n1 ?
RESULT: 0% (inactive)

QUERY: Which measured cytotoxicity value corresponds to Cn1c(=O)c2c(SCC(=O)N3CCC(Cc4ccccc4)CC3)nc(C3CC3)nc2n(C)c1=O ?
RESULT: -3.8% (inactive)

QUERY: Which measured cytotoxicity value corresponds to Cc1sc2nc3n(c(=O)c2c1C)CCCS3 ?
RESULT: 3.5% (inactive)

QUERY: Which measured cytotoxicity value corresponds to CCCc1nc(SCC(=O)N2CCCc3ccccc32)c2c(=O)n(C)c(=O)n(C)c2n1 ?
RESULT: 77% (active)

====

test: cytotoxicity in HPDE-C7 cells, cell-based, fluorescence, HTS (AID 430)
particulars: HPDE-C7 pancreatic duct cells viability, at 10 µM
The campaign covered roughly 63,000 compounds. About 1,100 (1.7%) were called active. No stated cut-off is given here; in the data, active means cytotoxicity above about 50%; inactive means the rest. The full list was thinned out, with actives kept by preference. Entries with a potency or affinity are not part of this list.
// one of active, inactive, no free text

For orientation, consider the following solved cases.
>  <smiles.str>
COc1ccc(-n2nc3c(c2NC(=O)c2cc4ccccc4oc2=O)CS(=O)(=O)C3)cc1

>  <class>
inactive

$$$$
>  <smiles.str>
COc1ccc(/C=N/n2cc(-c3ccccc3)nc2N)cc1

>  <class>
active

$$$$
>  <smiles.str>
Cc1cccc(Cc2c(C)nc3nc(SCC(=O)NCc4ccco4)nn3c2C)c1

>  <class>
inactive

$$$$
>  <smiles.str>
Nc1nnnn1/N=C/c1cccc(Oc2ccccc2)c1

>  <class>
inactive

$$$$
>  <smiles.str>
COc1ccc(/C=N/n2cnnc2SCc2ccccc2)cc1

>  <class>
inactive

$$$$

QUERY: What was the test verdict on Cc1ccccc1Cc1c(C)nc2nc(SCC(=O)NCc3ccco3)nn2c1C ?
RESULT: inactive

====

test: cytotoxicity in HPDE-C7 cells, cell-based, fluorescence, HTS (AID 430);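 also: cells exposed to compound for 48 hours before viability readout; 0% = vehicle and 100% = reference cytotoxic drug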
particulars: HPDE-C7 pancreatic duct cells viability, at 10 µM, active compounds read high
About 1,100 (1.7%) of roughly 63,000 compounds were called active. The sample as a whole holds a higher share of actives than the screen did. Entries with a potency or affinity are not part of this list.
Below is a list of entries, each paired with its recorded cytotoxicity value.

For orientation, consider the following solved cases.
>  <compound>
COc1cc(CO)cc(Br)c1OCC(=O)O

>  <cytotoxicity>
-22.6% (inactive)

$$$$
>  <compound>
Cc1ccc(NC(=O)CSC2=C(C#N)C(c3ccco3)C3=C(CCCC3=O)N2)cc1 (configuration not stated)

>  <cytotoxicity>
3.5% (inactive)

$$$$
>  <compound>
CCN(CC)S(=O)(=O)c1ccc2c(c1)nc(SCC(=O)NC1CC1)n2-c1ccccc1OC

>  <cytotoxicity>
3.8% (inactive)

$$$$
>  <compound>
O=C(Nc1ccccc1N1CCN(C(=O)c2ccc(Cl)cc2)CC1)c1cc2ccccc2o1

>  <cytotoxicity>
-2.7% (inactive)

$$$$
>  <compound>
Cc1nnc(SCc2ccccc2Cl)n1CC1CCCO1 (configuration not stated)

>  <cytotoxicity>
-11.9% (inactive)

$$$$
>  <compound>
CC1(C)OC(=O)C(=CNc2cccc(C(=O)O)c2)C(=O)O1

>  <cytotoxicity>
-20.6% (inactive)

$$$$
>  <compound>
O=C(CSc1nnc(-c2c[nH]c3ccccc23)o1)N(Cc1ccccc1)c1ccc(F)cc1

>  <cytotoxicity>
53.6% (active)

$$$$
>  <compound>
O=C(CSc1nnc(CNC(=O)c2cccs2)o1)NC1CCCCC1

>  <cytotoxicity>
-2.7% (inactive)

$$$$
>  <compound>
Cc1ccccc1NC(=O)c1nc[nH]c1C(=O)NCc1ccccc1

>  <cytotoxicity>
-22.2% (inactive)

$$$$
>  <compound>
CCCC(=O)N1CCN(c2ccc(NC(=O)c3cc4ccccc4o3)cc2)CC1

>  <cytotoxicity>
-13.7% (inactive)

$$$$

QUERY: Which measured cytotoxicity value corresponds to O=c1[nH]nnc2c1sc1nc(N3CCOCC3)c3c(c12)CCCC3 ?
RESULT: 30.8% (inactive)

QUERY: Which measured cytotoxicity value corresponds to Oc1ccc2c(c1)oc1cc(O)ccc12 ?
RESULT: 56.4% (active)

QUERY: Which measured cytotoxicity value corresponds to COc1ccc(NC(=O)c2nc[nH]c2C(=O)Nc2ccccc2C)cc1 ?
RESULT: 55.3% (active)

QUERY: Which measured cytotoxicity value corresponds to O=c1oc2cc(O)ccc2c2c1CCCC2 ?
RESULT: 30.9% (inactive)

QUERY: Which measured cytotoxicity value corresponds to CC(C)(C)c1ccc(C(=O)CCCSC2=C(C#N)C(c3ccco3)C3=C(CCCC3=O)N2)cc1 (configuration not stated) ?
RESULT: 38.2% (inactive)

QUERY: Which measured cytotoxicity value corresponds to Cn1c(N2CCCCC2)nc2c1c(=O)n(Cc1cccc(Br)c1)c(=O)n2C ?
RESULT: -15.8% (inactive)

QUERY: Which measured cytotoxicity value corresponds to CCOc1ccc2nc(C(C)O)[nH]c2c1 (configuration not stated) ?
RESULT: -5.7% (inactive)

QUERY: Which measured cytotoxicity value corresponds to Cc1ccc(CNC(=O)CN2CCN(Cc3ccc(C)cc3)C2=O)cc1 ?
RESULT: -20.9% (inactive)

QUERY: Which measured cytotoxicity value corresponds to COc1ccccc1CN1C(=O)[C@@H]2C(CCC(N)=O)NC3(C(=O)Nc4c3ccc(Cl)c4C)[C@@H]2C1=O (some centres not stated) ?
RESULT: -5.3% (inactive)

QUERY: Which measured cytotoxicity value corresponds to COc1cccc(N2CCN(C(=O)c3[nH]c(C)c(C(C)=O)c3C)CC2)c1 ?
RESULT: 53.6% (active)

QUERY: Which measured cytotoxicity value corresponds to Nc1nc2n(n1)C(c1cccc(Cl)c1)CC(c1ccc(F)cc1)N2 (configuration not stated) ?
RESULT: 10.8% (inactive)

QUERY: Which measured cytotoxicity value corresponds to COc1ccc2c(c1)c(C(O)CN1CCC3(CC1)OCCO3)c(C)n2C (configuration not stated) ?
RESULT: 9% (inactive)

====

test: cytotoxicity in HPDE-C7 cells, cell-based, fluorescence, HTS (AID 430);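 also: cells exposed to compound for 48 hours before viability readout; 0% = vehicle and 100% = reference cytotoxic drug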
particulars: HPDE-C7 pancreatic duct cells viability, at 10 µM
Among all 63,000 compounds or so, about 1,100 (1.7%) were called active. Rule as the data show it: active = cytotoxicity above about 50%; inactive = the rest. The full list was thinned out, with actives kept by preference. Entries with a potency or affinity are not part of this list.
// one of yes = active, no = inactive, no free text

For orientation, consider the following solved cases.
>  <molecule>
FC(F)(F)c1cc(-c2cccs2)nc(N2CCOCC2)n1

>  <class>
no

$$$$
>  <molecule>
FC(F)(F)c1cc(-c2ccco2)nc(NCc2ccco2)n1

>  <class>
no

$$$$
>  <molecule>
Cc1ccc(-c2cc(-c3cccc(F)c3)n[nH]2)c(O)c1

>  <class>
no

$$$$
>  <molecule>
CCn1c(SCC(=O)Nc2ccc3c(c2)OCO3)nc2c1c(=O)n(C)c(=O)n2C

>  <class>
no

$$$$
>  <molecule>
COc1ccc(CNC(=O)c2cnc3scc(C)n3c2=O)cc1

>  <class>
no

$$$$
>  <molecule>
CSc1ccccc1NC(=O)c1cnc2scc(C)n2c1=O

>  <class>
no

$$$$

QUERY: What was the test verdict on CC(C)c1nnc(NC(=O)CCC(=O)Nc2ccc(F)cc2)s1 ?
RESULT: no

QUERY: What was the test verdict on COc1ccc(CNC(=O)C2CCCN2S(=O)(=O)c2ccccc2)cc1 (stereo not drawn) ?
RESULT: no

QUERY: What was the test verdict on CC(=O)NC(C)C12CC3CC(CC(C(=O)O)(C3)C1)C2 (stereo not drawn) ?
RESULT: no

====

test: cytotoxicity in HPDE-C7 cells, cell-based, fluorescence, HTS (AID 430);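 also: cells exposed to compound for 48 hours before viability readout; 0% = vehicle and 100% = reference cytotoxic drug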
particulars: HPDE-C7 pancreatic duct cells viability, at 10 µM, active compounds read high
In all, about 63,000 compounds went through this assay and about 1,100 (1.7%) were called active. The sample holds actives, similar compounds and a random draw of the others, so the mix is not that of the screen. Measured potencies and affinities stand elsewhere.
measurement.label: cytotoxicity (%)
Enter your answer as a number in %; do not include the unit.

>  <compound>
CC(=O)c1cnc2cc(-c3ccccc3)nn2c1C

>  <cytotoxicity / %>
-20.8

$$$$
>  <compound>
CCCCCn1c(CN2CCN(Cc3ccccc3)CC2)nc2c1c(=O)[nH]c(=O)n2C

>  <cytotoxicity / %>
0

$$$$
>  <compound>
COc1cc(S(=O)(=O)Nc2cccnc2)ccc1F

>  <cytotoxicity / %>
-3.6

$$$$
>  <compound>
CCOC(=O)c1c(CN2CCCCC2)n(C)c2cc(Br)c(OC)cc12

>  <cytotoxicity / %>
8.3

$$$$
>  <compound>
Cc1cc(C)cc(NC(=O)c2nnn(Cc3cc(C)ccc3C)c2N)c1

>  <cytotoxicity / %>
58.9

$$$$
>  <compound>
Cc1ccc(-c2noc(CCC(=O)NCCCN3CCN(c4ccc(F)cc4)CC3)n2)cc1

>  <cytotoxicity / %>
-1.5

$$$$
>  <compound>
COCCn1c(SCC(=O)N2CCCc3ccccc32)nnc1-c1ccco1

>  <cytotoxicity / %>
-4.5

$$$$
>  <compound>
COc1cccc(CNC(=O)C2CCN(S(=O)(=O)N3CCCC3)CC2)c1

>  <cytotoxicity / %>
-7.2

$$$$
>  <compound>
COc1cccc(C2C3=C(N=C4SCC(=O)N42)c2ccccc2CC3)c1OC (stereo unspecified)

>  <cytotoxicity / %>
-2.4

$$$$
>  <compound>
COc1ccc(-c2noc(C3CCCN(C(=O)c4cccs4)C3)n2)cc1 (stereo unspecified)

>  <cytotoxicity / %>
-9

$$$$

QUERY: Which measured cytotoxicity value corresponds to CC(C)(C)n1nnnc1C(c1cccs1)N(Cc1ccccc1)Cc1ccco1 (stereo unspecified) ?
RESULT: -4.3

QUERY: Which measured cytotoxicity value corresponds to COc1cccc(OCC(O)CN2CCC(C)CC2)c1 (stereo unspecified) ?
RESULT: 0.1

QUERY: Which measured cytotoxicity value corresponds to COC(=O)c1cc(COC(=O)c2cccnc2SC)oc1C ?
RESULT: -9.4

QUERY: Which measured cytotoxicity value corresponds to CCOc1ccc(-c2cc(CCCC(=O)NCc3cccnc3)no2)cc1 ?
RESULT: -0.4

QUERY: Which measured cytotoxicity value corresponds to CCOC(=O)c1c(CNCCN(CC)CC)n(C)c2cc(Br)c(OC)cc12 ?
RESULT: 57.3

QUERY: Which measured cytotoxicity value corresponds to COc1ccc(NC(=O)c2ccc(COc3ccccc3Br)o2)cc1OC ?
RESULT: 36.6

QUERY: Which measured cytotoxicity value corresponds to O=C(Nc1ccncc1)c1cccc(F)c1 ?
RESULT: -0.4

QUERY: Which measured cytotoxicity value corresponds to Cc1ccc(NC(=O)c2cnn(-c3ccccc3)c2NC(=O)c2ccco2)cc1C ?
RESULT: 1.7

QUERY: Which measured cytotoxicity value corresponds to Cc1ccc(CCNC(=O)c2nnn(-c3cc(C)cc(C)c3)c2N)cc1 ?
RESULT: 3.4

QUERY: Which measured cytotoxicity value corresponds to COc1ccc(N2CCN(C(=O)CCNS(=O)(=O)c3ccc(Br)s3)CC2)cc1 ?
RESULT: -17.4

QUERY: Which measured cytotoxicity value corresponds to Cc1cccc(-n2nnc(C(=O)Nc3ccc(F)cc3)c2N)c1 ?
RESULT: 15.2

QUERY: Which measured cytotoxicity value corresponds to O=C(Nc1c(C(=O)N2CCCCC2)cnn1-c1ccccc1)c1ccco1 ?
RESULT: -10.4

QUERY: Which measured cytotoxicity value corresponds to Cc1ccc(C)c(NC(=O)c2nnn(Cc3ccccc3C)c2N)c1 ?
RESULT: 1.7
